Molecular target: SUMO (Homo sapiens)
Sequence (Q9UBT2 whole entry): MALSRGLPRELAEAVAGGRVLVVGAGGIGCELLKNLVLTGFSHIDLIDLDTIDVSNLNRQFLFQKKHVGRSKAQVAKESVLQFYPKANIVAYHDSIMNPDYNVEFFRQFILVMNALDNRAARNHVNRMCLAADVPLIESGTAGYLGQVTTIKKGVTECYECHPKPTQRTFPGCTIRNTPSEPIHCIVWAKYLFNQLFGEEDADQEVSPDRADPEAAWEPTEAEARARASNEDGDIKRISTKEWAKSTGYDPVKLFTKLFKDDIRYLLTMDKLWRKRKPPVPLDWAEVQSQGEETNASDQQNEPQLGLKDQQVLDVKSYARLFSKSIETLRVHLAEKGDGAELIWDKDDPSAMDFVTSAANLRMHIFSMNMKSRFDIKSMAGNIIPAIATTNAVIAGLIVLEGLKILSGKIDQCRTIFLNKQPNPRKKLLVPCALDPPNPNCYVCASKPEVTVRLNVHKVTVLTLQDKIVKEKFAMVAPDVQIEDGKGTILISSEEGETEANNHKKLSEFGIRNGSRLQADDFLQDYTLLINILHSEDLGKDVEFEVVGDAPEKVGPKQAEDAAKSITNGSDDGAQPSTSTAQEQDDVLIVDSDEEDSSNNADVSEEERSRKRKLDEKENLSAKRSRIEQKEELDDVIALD
Sequence (Q9UBE0 whole entry partner): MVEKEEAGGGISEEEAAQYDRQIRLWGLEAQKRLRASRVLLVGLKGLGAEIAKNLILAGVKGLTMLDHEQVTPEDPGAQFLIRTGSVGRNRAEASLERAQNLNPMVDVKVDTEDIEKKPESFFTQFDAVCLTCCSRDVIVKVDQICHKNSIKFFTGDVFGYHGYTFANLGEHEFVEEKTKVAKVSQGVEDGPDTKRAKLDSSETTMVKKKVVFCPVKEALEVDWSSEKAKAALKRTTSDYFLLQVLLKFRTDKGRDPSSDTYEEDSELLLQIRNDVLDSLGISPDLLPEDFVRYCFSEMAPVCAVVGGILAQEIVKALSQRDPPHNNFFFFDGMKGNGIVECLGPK
Experiment: SUMO activity (Table I, biological activities)
Format: biochemical
Parameters: key: + (less active); ++ (active); +++ (most active)
endpoint: SUMO

Solved entries:
INSERT INTO measurements (molecule, observed) VALUES
  ('NC(=O)C1=C(C(N)=O)C2(C(Cc3ccccc3)Nc3ccccc3)C=CC1O2 (stereo not drawn) [Compound 202]', '+'),
  ('CCOC(=O)C1=C(C(=O)OCC)C2(C(Cc3ccccc3)Nc3ccccc3)C=CC1(C)O2 (stereo not drawn) [Compound 260]', '++'),
  ('COC(=O)C1=C(C(=O)NC2CCN(C(=O)NCC3CCCO3)CC2)C2C=CC1(C(Cc1ccccc1)Nc1ccccc1)O2 (stereo not drawn) [Compound 382]', '++'),
  ('COC(=O)C1=C(C(=O)NCCN(C)C)C2C=CC1(C(Cc1ccccc1)Nc1cccc(CO)c1)O2 (stereo not drawn) [Compound 535]', '+++');

q: State, in one line, measured SUMO of CCOC(=O)C1=C(C(=O)Nc2ccc(CN(C)C)cc2)C2C=CC1(C(Nc1ccccc1)c1ccc(CN3CCOCC3)cc1)O2 (stereo not drawn) [Compound 565]
a: +

q: State, in one line, measured SUMO of COC(=O)C1=C(C(=O)Nc2ccc(C)c(F)c2)C2CCC1(C(Cc1ccccc1Cl)Nc1ccccc1)O2 (stereo not drawn) [Compound 692]
a: +

q: State, in one line, measured SUMO of COC(=O)C1=C(C(N)=O)C2C=CC1(C(Cc1ccccc1)Nc1cccc(Oc3ccccc3)c1)O2 (stereo not drawn) [Compound 319]
a: +++

====

Target: SUMO (Homo sapiens)
Test: SUMO activity (Table I, biological activities)
Format: biochemical
Parameters: key: + (less active); ++ (active); +++ (most active)
endpoint: SUMO

INSERT INTO assay_data (molecule, observed) VALUES
  ('COC(=O)C1=C(C(=O)OC)C2(C(Cc3ccccc3C)Nc3ccccc3)C=CC1O2 (stereo not shown) [Compound 648]', '++'),
  ('COC(=O)C1=C(C(=O)NNc2ccccn2)C2C=CC1(C(Cc1ccccc1)Nc1ccccc1)O2 (stereo not shown) [Compound 221]', '++'),
  ('COC(=O)C1=C(C(=O)NC2CCN(C)C2)C2C=CC1(C(Cc1ccccc1)Nc1ccccc1)O2 (stereo not shown) [Compound 239]', '+++'),
  ('COC(=O)C1=C(C(=O)OC)C2(C(Cc3ccccc3)Nc3ccc(F)cc3)C=CC1O2 (stereo not shown) [Compound 273]', '++');

====

Target: SUMO (Homo sapiens)
Assay: SUMO activity (Table I, biological activities)
Type: biochemical
Design: key: + (less active); ++ (active); +++ (most active)
endpoint: SUMO

INSERT INTO results (molecule, endpoint, observed) VALUES
  ('CCOC(=O)C1=C(C(=O)Nc2ccc(C)c(F)c2)C2C=CC1(C(Nc1ccccc1)c1ccc(CN3CCOCC3)cc1)O2 (centres unmarked) [Compound 558]', 'SUMO', '+'),
  ('COC(=O)C1=C(C(=O)OC)C2(C(Nc3ccccc3)C3CCCC3)C=CC1O2 (centres unmarked) [Compound 186]', 'SUMO', '++'),
  ('COC(=O)C1=C(C(=O)NC2CCN(S(=O)(=O)c3ccccc3)CC2)C2C=CC1(C(Cc1ccccc1)Nc1ccccc1)O2 (centres unmarked) [Compound 358]', 'SUMO', '+'),
  ('COC(=O)C1=C(C(=O)Nc2ccc(Oc3ccccc3)cc2)C2C=CC1(C(Cc1ccccc1)Nc1ccccc1)O2 (centres unmarked) [Compound 296]', 'SUMO', '++');

q: State, in one line, measured SUMO of COC(=O)C1=C(C(=O)OC)C2(C(Cc3ccccc3)N(C)c3ccccc3)C=CC1O2 (centres unmarked) [Compound 236]
a: ++

Attribution: patent US11578079B2
